- System Tested: 15-lipoxygenase (human leucocytes) (Homo sapiens, UniProt P16050)
- Construct: endogenous in cells
- Sequence (P16050 whole entry): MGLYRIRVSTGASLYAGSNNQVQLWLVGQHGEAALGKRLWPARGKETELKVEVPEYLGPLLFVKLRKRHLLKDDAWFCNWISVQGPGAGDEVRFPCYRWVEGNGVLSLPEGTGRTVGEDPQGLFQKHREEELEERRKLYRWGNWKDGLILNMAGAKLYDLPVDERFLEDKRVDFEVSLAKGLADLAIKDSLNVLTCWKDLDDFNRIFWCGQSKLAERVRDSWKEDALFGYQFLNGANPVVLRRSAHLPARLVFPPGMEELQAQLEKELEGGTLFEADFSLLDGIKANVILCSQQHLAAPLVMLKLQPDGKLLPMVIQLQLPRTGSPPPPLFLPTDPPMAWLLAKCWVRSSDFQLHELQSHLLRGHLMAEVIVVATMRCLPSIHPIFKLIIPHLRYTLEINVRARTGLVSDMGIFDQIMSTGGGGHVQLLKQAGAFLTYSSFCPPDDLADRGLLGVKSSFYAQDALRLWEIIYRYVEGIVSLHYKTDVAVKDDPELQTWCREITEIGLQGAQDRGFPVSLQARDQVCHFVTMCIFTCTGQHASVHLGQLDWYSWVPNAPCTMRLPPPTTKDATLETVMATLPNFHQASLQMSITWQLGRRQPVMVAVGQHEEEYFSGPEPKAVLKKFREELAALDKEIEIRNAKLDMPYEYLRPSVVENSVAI
- Measurement Description: Experiment No. 2: inhibition of 15-lipoxygenase in human leucocytes stimulated by ionophore and arachidonic acid (15-HETE)
- Details: Experiment No. 2, 15-HETE, ionophore A23187 and arachidonic acid
pIC50: −log10 of the molar value.
Readout: pIC50

1) Oc1ccc(S)cc1O [drawing 32]    4.30
2) CCC(C)CSc1ccc(O)c(O)c1 (stereo not drawn) [drawing 33]    5.00
3) CCCCCCC(C)Sc1ccc(O)c(O)c1 (stereo not drawn) [drawing 34]    5.00

* * *

- System Tested: cyclooxygenase (human platelets microsomes) (Homo sapiens)
- Construct: human platelets microsomes
- Sequence (P23219 24-599): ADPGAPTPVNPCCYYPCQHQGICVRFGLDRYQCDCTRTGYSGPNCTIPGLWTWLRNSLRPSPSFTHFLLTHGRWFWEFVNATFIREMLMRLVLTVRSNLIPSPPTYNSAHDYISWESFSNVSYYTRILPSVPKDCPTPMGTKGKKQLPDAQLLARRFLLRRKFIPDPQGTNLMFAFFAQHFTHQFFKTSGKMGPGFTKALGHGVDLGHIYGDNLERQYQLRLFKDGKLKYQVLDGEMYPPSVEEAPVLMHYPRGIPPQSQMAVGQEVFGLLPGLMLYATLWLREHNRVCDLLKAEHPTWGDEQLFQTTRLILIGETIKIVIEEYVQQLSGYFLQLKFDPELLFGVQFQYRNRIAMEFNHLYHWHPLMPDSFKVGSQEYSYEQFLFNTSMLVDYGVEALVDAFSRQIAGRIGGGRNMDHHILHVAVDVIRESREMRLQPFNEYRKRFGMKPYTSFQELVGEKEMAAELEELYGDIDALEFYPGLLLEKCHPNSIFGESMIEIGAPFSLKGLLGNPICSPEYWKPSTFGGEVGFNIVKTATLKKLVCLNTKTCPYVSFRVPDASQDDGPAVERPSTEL
- Measurement Description: Cycloxygenase inhibition in human platelets microsomes
- Details: cyclooxygenase (PGE2/TxB2), pH 7.9, 37° C.
Catalogue of IC50 readings, one per entry.
Readout: IC50 (µM)

1. CCCCCCC(C)Sc1ccc(O)c(O)c1 (stereo not shown) [drawing 23]    3.46
2. Oc1ccc(S)cc1O [drawing 20]    9.23
3. CCC(C)CSc1ccc(O)c(O)c1 (stereo not shown) [drawing 21]    4.31
4. CC1CCC(C(C)C)C(Sc2ccc(O)c(O)c2)C1 (stereo not shown) [drawing 22]    16.8

* * *

- System Tested: 5-lipoxygenase (human leucocytes) (Homo sapiens, UniProt P09917)
- Construct: human leucocytic lipoxygenase; endogenous in cells; host or cells: human (polynuclear) leucocytes
- Sequence (P09917 whole entry): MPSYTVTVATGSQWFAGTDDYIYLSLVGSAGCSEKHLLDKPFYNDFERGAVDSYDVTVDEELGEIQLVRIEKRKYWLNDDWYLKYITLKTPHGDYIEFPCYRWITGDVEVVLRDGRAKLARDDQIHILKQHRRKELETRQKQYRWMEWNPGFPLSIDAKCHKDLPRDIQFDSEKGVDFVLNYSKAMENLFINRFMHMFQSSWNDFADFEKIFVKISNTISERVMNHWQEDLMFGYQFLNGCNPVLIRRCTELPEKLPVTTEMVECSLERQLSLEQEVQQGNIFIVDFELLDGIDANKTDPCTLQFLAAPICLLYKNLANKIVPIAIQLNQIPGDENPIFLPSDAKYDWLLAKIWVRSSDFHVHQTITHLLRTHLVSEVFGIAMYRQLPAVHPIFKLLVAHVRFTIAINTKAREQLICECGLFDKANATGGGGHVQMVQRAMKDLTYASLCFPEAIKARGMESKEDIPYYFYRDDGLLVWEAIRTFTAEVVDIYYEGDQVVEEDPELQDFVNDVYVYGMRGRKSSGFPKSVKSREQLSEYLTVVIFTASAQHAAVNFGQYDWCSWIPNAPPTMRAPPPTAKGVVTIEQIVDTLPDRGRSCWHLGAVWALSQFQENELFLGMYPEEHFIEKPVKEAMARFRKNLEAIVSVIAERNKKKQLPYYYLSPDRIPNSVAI
- Measurement Description: Experiment No. 1: inhibition of 5-lipoxygenase in human leucocytes stimulated by ionophore (5-HETE, LTB4)
- Format: cell-based
- Details: Experiment No. 1, 5-HETE, ionophore A23187 alone
pIC50: −log10 of the molar value.
Catalogue of pIC50 readings, one per entry.
Readout: pIC50

1. Oc1ccc(S)cc1O [drawing 31]    5.70
2. CCC(C)CSc1ccc(O)c(O)c1 (centres unmarked) [drawing 30]    6.00

* * *

- System Tested: soybean lipoxygenase (Glycine max, UniProt P08170)
- Sequence (P08170 whole entry): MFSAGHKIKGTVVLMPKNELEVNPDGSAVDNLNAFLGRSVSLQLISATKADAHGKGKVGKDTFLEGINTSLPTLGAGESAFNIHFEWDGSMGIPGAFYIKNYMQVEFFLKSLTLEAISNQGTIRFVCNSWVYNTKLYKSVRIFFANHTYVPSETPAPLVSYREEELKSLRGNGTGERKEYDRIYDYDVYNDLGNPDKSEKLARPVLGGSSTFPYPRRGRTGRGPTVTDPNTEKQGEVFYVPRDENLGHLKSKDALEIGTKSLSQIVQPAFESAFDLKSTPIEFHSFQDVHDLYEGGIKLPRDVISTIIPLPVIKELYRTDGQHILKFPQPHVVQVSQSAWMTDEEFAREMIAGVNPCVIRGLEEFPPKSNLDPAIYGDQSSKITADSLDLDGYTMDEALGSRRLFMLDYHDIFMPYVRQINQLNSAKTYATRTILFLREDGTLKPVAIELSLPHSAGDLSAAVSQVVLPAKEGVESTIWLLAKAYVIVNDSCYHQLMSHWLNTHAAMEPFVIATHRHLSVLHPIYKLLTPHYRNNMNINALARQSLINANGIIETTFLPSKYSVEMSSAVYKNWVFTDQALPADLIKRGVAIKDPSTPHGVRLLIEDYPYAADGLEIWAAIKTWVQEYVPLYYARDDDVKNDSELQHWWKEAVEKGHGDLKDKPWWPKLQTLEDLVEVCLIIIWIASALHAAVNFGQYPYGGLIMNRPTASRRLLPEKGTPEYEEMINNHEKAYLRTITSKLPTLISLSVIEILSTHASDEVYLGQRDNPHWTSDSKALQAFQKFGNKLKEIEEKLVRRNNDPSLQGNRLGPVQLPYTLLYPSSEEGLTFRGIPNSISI
Readout: IC50 (µM)

1. CCCCCCC(C)Sc1ccc(O)c(O)c1 (stereo not drawn) [drawing 10]    24.5
2. S=C(N=Nc1ccccc1)NNc1ccccc1 [Diphenylthiocarbazone, reference compound]    1.61
3. CCC(C)CSc1ccc(O)c(O)c1 (stereo not drawn) [drawing 7]    104
4. Oc1ccc(S)cc1O [drawing 6]    93
5. CCCCCCC(C)Sc1ccc(O)c(O)c1 (stereo not drawn) [drawing 9]    27.6
6. CC1CCC(C(C)C)C(Sc2ccc(O)c(O)c2)C1 (stereo not drawn) [drawing 8]    24.1

* * *

These records show IC50 for xanthine oxidase (Bos taurus, UniProt P80457).
Readout: IC50

1. CCC(C)CSc1ccc(O)c(O)c1 (stereo not shown) [drawing 28]    511 µM
2. Nc1nc2ncc(CNc3ccc(C(=O)N[C@@H](CCC(=O)O)C(=O)O)cc3)nc2c(=O)[nH]1 [Folic acid, reference compound]    0.676 µM
3. Oc1ccc(S)cc1O [drawing 27]    237 µM
4. CCCCCCC(C)Sc1ccc(O)c(O)c1 (stereo not shown) [drawing 29]    557 µM
